test: Stability of analytes in cell lysates (LC–MS/MS method validation); format: physicochemical; conditions: 12 h at room temperature, low QC level, n=3
Listing of entries alongside the reported Short-term stability RE%.
Numeric answer only, unit % assumed.

These solved cases illustrate the format of a correct answer.
>>> obsvalue("COc1ccc2cc3[n+](cc2c1OC)CCc1cc2c(cc1-3)OCO2")
5.6
>>> obsvalue("COc1cc2c(cc1O)CC[n+]1cc3c(OC)c(OC)ccc3cc1-2")
5.3
>>> obsvalue("c1cc2c(c3c1CC1c4cc5c(cc4CCN1C3)OCO5)OCO2 (stereo not shown) [THC, tetrahydrocoptisine]")
3.4

Suppose we examine the compound c1c2c(cc3c1OCO3)-c1cc3ccc4c(c3c[n+]1CC2)OCO4 ; what Short-term stability RE% value has been reported? 5.6
